Type: cell-based, Escherichia coli
Procedure: To transform the plasmids to be tested, an AAD12-expressing plasmid and a blank control plasmid pET15b were respectively transformed into the protein expression E. coli BL21(DE3) strains. A monoclone was selected and inoculated in a 10 ml centrifuge tube with 3 ml LB medium, and cultivated at 37° C., 200 rpm for 6-8 hours. […] The temperature was switched to 28° C. and the cultivation continued overnight. […]
observation-type: Chromogenic reaction of degrading herbicides in bacteria: MCPA

## Input Please report Chromogenic reaction of degrading herbicides in bacteria: MCPA for the following molecule: QYD47: AAD-like enzyme, SEQ ID NO. 93 (protein, Synthetic polypeptide, QYD47, D47) MATRLEIKPLDATFGAVVTGIKLAEIDEATWRELHATWLKYALLVFPGQFLKRDQQIAFAKHFGPLEFEMAAISNVKSDGTLRIEKDNDDVMKILKGNMGWHADSTYMPVQAKGAVFSAEEVPTVGGQTGWADMRAAYDALDDARRARVETLQAYHSLHYSQSKLGHETRKSDGEYSGYGLHNGPIPLRPLVKTHPETGRKSLLIGRHAHDIPGMDREESQSFLEELVDFACRPPRIYHHDWAAGDAVVWDNRCLLHQATPWDMTQRRIMWHSRIAGDPASESALAA
## Output Yes
